Values from paper PMC11818225

Test system: T-47D (breast)
protocol_summary: Antiproliferative SBR assay (NCI protocol), T-47D
Assay type: cell-based, human
assay_context: Homo sapiens, T47D; 48 h exposure, n = 3, mean ± SD; multidrug-resistant line
From the text: The latter two represent multidrug-resistant cell lines.
metric_name: GI50

[
  {
    "compound": "NS(=O)(=O)c1ccc(NC(=S)N/N=C/c2ccccc2)cc1 [Compound 4a]",
    "obs_value": "2.6 µM"
  },
  {
    "compound": "COc1ccc(/C=N/NC(=S)NCCc2ccc(S(N)(=O)=O)cc2)cc1 [Compound 4m]",
    "obs_value": "> 100 µM"
  },
  {
    "compound": "NS(=O)(=O)c1ccc(CCNC(=S)N/N=C/c2ccccc2)cc1 [Compound 4l]",
    "obs_value": "> 100 µM"
  },
  {
    "compound": "NS(=O)(=O)c1ccc(CCNC(=S)N/N=C/c2ccccn2)cc1 [Compound 5c]",
    "obs_value": "> 100 µM"
  },
  {
    "compound": "NNC(=S)NCCc1ccc(S(N)(=O)=O)cc1 [Compound 3c]",
    "obs_value": "> 100 µM"
  },
  {
    "compound": "NS(=O)(=O)c1ccc(NC(=S)N/N=C/c2ccc(Br)cc2)cc1 [Compound 4e]",
    "obs_value": "36 µM"
  },
  {
    "compound": "NNC(=S)Nc1cccc(S(N)(=O)=O)c1 [Compound 3b]",
    "obs_value": "> 100 µM"
  },
  {
    "compound": "NS(=O)(=O)c1ccc(CCNC(=S)N/N=C/c2ccc(F)cc2)cc1 [Compound 4n]",
    "obs_value": "> 100 µM"
  },
  {
    "compound": "COc1ccc(/C=N/NC(=S)Nc2cccc(S(N)(=O)=O)c2)cc1 [Compound 4h]",
    "obs_value": "> 100 µM"
  }
]

* * *

tested_target: human CA XII (Homo sapiens, UniProt O43570)
Sequence (O43570 25-354): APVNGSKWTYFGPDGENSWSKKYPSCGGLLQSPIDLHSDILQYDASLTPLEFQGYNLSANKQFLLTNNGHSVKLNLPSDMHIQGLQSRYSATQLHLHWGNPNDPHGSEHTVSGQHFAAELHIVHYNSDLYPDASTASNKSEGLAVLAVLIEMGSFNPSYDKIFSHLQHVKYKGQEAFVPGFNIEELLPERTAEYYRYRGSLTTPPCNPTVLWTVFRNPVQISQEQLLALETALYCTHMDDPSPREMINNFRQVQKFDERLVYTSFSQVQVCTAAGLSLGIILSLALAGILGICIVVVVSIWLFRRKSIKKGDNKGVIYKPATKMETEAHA
protocol_summary: Stopped-flow CO2 hydrase assay, CA XII
assay_context: Ki CA II / Ki CA XII
Below, each of the molecules is paired with its reported Selectivity Ratio II/XII value.

[
  {
    "molecule": "COc1ccc(/C=N/NC(=S)NCCc2ccc(S(N)(=O)=O)cc2)cc1 [Compound 4m]",
    "Selectivity Ratio II/XII": 9.2
  },
  {
    "molecule": "NS(=O)(=O)c1ccc(CCNC(=S)N/N=C/c2ccc(F)cc2)cc1 [Compound 4n]",
    "Selectivity Ratio II/XII": 12.2
  },
  {
    "molecule": "NNC(=S)NCCc1ccc(S(N)(=O)=O)cc1 [Compound 3c]",
    "Selectivity Ratio II/XII": 1.7
  },
  {
    "molecule": "NS(=O)(=O)c1ccc(CCNC(=S)N/N=C/c2ccccn2)cc1 [Compound 5c]",
    "Selectivity Ratio II/XII": 9.0
  },
  {
    "molecule": "NS(=O)(=O)c1ccc(CCNC(=S)N/N=C/c2ccccc2)cc1 [Compound 4l]",
    "Selectivity Ratio II/XII": 7.7
  },
  {
    "molecule": "NS(=O)(=O)c1ccc(CCNC(=S)N/N=C/c2ccc(Br)cc2)cc1 [Compound 4p]",
    "Selectivity Ratio II/XII": 6.6
  },
  {
    "molecule": "NNC(=S)Nc1cccc(S(N)(=O)=O)c1 [Compound 3b]",
    "Selectivity Ratio II/XII": 3.8
  }
]
